parameterMeasured: melting point

molecule: COc1cc2c3c(n(C)c(=O)c2cc1OC)-c1cc2c(cc1C3=CCCN)OCO2 [compound 26]
reportedMeasurement: > 180 °C (dec.)
//
molecule: COc1cc2c3c(n(C)c(=O)c2cc1OC)-c1cc2c(cc1C3=CCCCCCBr)OCO2 [compound 21]
reportedMeasurement: 182 to 185 °C
//
molecule: COc1cc2c3c(n(C)c(=O)c2cc1OC)-c1cc2c(cc1C3=CCCCCl)OCO2 [compound 18]
reportedMeasurement: 196 to 201 °C
//
molecule: COc1cc2c3c(n(C)c(=O)c2cc1OC)-c1cc2c(cc1C3=CCCCCBr)OCO2 [compound 20]
reportedMeasurement: 196 to 197 °C
//
molecule: COc1cc2c3c(n(C)c(=O)c2cc1OC)-c1cc2c(cc1C3=CCCCI)OCO2 [compound 24]
reportedMeasurement: 173 to 174.5 °C
//
molecule: COc1cc2c3c(n(C)c(=O)c2cc1OC)-c1cc2c(cc1C3=CCCCBr)OCO2 [compound 19]
reportedMeasurement: 197 to 199 °C
